Taken from ChEMBL document CHEMBL4673190.

target: Cyclin-dependent kinase 2/cyclin E1 (Homo sapiens); assay: Inhibition of CDK2/cyclin E (unknown origin) expressed in baculovirus infected Sf21 insect cells using histone H1 as substrate in presence of [gamma33P]ATP
Observable: IC50 (µM)

O=C(Oc1nc(SCCc2ccccc2)nc2[nH]ncc12)c1cc2ccccc2o1: 6.8
O=[N+]([O-])c1cccc(Nc2nc(SCCc3ccccc3)nc3[nH]ncc23)c1: 5.1
